# credit: patent US20250241873A1

# Method Description: Open-label absolute bioavailability / pharmacokinetic study of intranasal ketamine in healthy volunteers
# Assay type: in vivo, human
# Test Parameters: human, plasma, inhaled or intranasal, 40 milligrams, intranasal, effective amount 40 milligrams; read-out: AUC (0-4 hr)
Measured Property: AUC(0-t)

Query: Look at this molecule and give its reported AUC(0-t). CNC1(c2ccccc2Cl)CCCCC1=O (racemic) [(RS)-Ketamine]
Response: 160 to 433 ng·h/mL

----------
# Method Description: Open-label absolute bioavailability / pharmacokinetic study of intranasal ketamine in healthy volunteers
# Format: in vivo, human
# Test Parameters: human, plasma, inhaled or intranasal, 20 mg, AUC (0-1 hr), intranasal, effective amount 20 mg
Measured Property: AUC(0-1 hr)

| Compound | Recorded Result |
| --- | --- |
| CNC1(c2ccccc2Cl)CCCCC1=O (racemic) [(RS)-Ketamine] | 28.7 to 127 ng·h/mL |

As a next step, examine the compound that follows.
Query: Look at this compound and give its reported AUC(0-1 hr). CN[C@]1(c2ccccc2Cl)CCCCC1=O [(S)-Ketamine]
Response: 30.9 to 96.7 ng·h/mL

----------
# Method Description: Open-label absolute bioavailability / pharmacokinetic study of intranasal ketamine in healthy volunteers
# Assay type: in vivo, human
# Test Parameters: human, plasma, other: intranasal; Dose 40 mg, hydro-alcoholic composition; minimum-maximum
Measured Property: Tmax

Query: Look at this compound and give its reported Tmax. CNC1(c2ccccc2Cl)CCCCC1=O (racemic) [(RS)-Ketamine]
Response: 10 to 30 min

----------
# Method Description: Open-label absolute bioavailability / pharmacokinetic study of intranasal ketamine in healthy volunteers
# Format: in vivo, human
# Test Parameters: human, plasma, other: intranasal; IN administration of racemic ketamine 80 mg, relative to IV; dose-corrected ratio of least squares geometric mean AUC(inf)
Measured Property: bioavailability (%)
Express the result in % but write the number alone.

Solved cases (2 shown):
| Molecule | Measurement Units | Recorded Result |
| --- | --- | --- |
| CN[C@]1(c2ccccc2Cl)CCCCC1=O [(S)-Ketamine] | % | 51.5 |
| CN[C@@]1(c2ccccc2Cl)CCCCC1=O [(R)-Ketamine] | % | 51.1 |

As a next step, examine the molecule that follows.
Query: Look at this molecule and give its reported bioavailability. CNC1(c2ccccc2Cl)CCCCC1=O (racemic) [(RS)-Ketamine]
Response: 51.8

----------
# Method Description: Open-label absolute bioavailability / pharmacokinetic study of intranasal ketamine in healthy volunteers
# Assay type: in vivo, human
# Test Parameters: human, plasma, inhaled or intranasal, 40 milligrams, AUC (0-1 hr), intranasal, effective amount 40 milligrams
Measured Property: AUC(0-1 hr)

Query: Look at this compound and give its reported AUC(0-1 hr). CNC1(c2ccccc2Cl)CCCCC1=O (racemic) [(RS)-Ketamine]
Response: 71.4 to 225 ng·h/mL

----------
# Method Description: Open-label absolute bioavailability / pharmacokinetic study of intranasal ketamine in healthy volunteers
# Assay type: in vivo, human
# Test Parameters: human, plasma, other: intranasal; IN administration of racemic ketamine 20 mg, relative to IV; dose-corrected ratio of least squares geometric mean AUC(inf)
Measured Property: bioavailability (%)
Express the result in % but write the number alone.

Solved cases (2 shown):
| Molecule | Measured Property | Recorded Result |
| --- | --- | --- |
| CN[C@]1(c2ccccc2Cl)CCCCC1=O [(S)-Ketamine] | bioavailability | 82.4 |
| CN[C@@]1(c2ccccc2Cl)CCCCC1=O [(R)-Ketamine] | bioavailability | 81.6 |

As a next step, examine the molecule that follows.
Query: Look at this molecule and give its reported bioavailability. CNC1(c2ccccc2Cl)CCCCC1=O (racemic) [(RS)-Ketamine]
Response: 82.1
